measured-on: recombinant human ROCK-1 (Homo sapiens, UniProt Q13464)
Sequence (Q13464 whole entry): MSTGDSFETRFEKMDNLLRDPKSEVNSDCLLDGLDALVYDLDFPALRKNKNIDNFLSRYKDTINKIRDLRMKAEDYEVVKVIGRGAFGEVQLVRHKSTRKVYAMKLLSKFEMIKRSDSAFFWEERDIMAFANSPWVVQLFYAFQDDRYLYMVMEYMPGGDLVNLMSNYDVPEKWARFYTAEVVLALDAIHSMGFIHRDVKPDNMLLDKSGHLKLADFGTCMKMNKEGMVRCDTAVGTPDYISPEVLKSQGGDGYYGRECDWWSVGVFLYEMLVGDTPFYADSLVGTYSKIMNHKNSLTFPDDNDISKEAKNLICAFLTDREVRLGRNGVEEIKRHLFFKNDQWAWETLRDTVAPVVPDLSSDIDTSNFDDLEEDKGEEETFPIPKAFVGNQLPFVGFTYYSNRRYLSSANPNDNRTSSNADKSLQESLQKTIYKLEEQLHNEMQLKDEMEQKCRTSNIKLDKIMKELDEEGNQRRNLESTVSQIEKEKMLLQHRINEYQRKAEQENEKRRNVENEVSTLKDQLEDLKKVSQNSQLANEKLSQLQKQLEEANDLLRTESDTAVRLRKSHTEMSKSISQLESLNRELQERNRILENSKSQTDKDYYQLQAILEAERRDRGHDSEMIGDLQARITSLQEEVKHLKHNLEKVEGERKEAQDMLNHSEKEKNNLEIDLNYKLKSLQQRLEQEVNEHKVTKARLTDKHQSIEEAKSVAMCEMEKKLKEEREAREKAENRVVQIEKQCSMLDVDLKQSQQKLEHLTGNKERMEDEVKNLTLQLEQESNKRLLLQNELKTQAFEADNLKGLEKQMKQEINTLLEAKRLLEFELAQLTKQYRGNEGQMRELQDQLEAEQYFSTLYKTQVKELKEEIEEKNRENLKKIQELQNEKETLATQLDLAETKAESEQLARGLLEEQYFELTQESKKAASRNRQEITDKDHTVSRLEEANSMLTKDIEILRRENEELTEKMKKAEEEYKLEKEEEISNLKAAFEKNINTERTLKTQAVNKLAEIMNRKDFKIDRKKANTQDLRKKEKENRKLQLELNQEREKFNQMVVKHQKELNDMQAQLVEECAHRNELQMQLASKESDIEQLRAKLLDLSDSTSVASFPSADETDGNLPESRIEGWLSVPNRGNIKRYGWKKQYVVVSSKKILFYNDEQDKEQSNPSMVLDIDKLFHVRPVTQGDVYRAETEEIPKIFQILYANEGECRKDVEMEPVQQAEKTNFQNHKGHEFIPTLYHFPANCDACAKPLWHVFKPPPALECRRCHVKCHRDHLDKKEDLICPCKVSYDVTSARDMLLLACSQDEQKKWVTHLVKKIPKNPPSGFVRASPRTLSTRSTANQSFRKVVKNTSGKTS
method-notes: In-vitro inhibitory activity on recombinant human ROCK-1 (IMAP fluorescence polarisation, fluorescein-labelled peptide)
Type: biochemical
conditions-used: read-out: ROCK-I pIC50 (converted)
endpoint-name: IC50 (nM)

// below: answered compounds
{"compound": "O=c1[nH]ccc2cc(SC3CCNCC3)ccc12", "measured-on": "recombinant human ROCK-1 (Homo sapiens, UniProt Q13464)", "recorded-result": 200}
{"compound": "O=C(CN1CCC[C@H](Oc2ccc3c(=O)[nH]ccc3c2)C1)c1ccccc1 [Example 32B]", "measured-on": "recombinant human ROCK-1 (Homo sapiens, UniProt Q13464)", "recorded-result": 501}
{"compound": "O=c1[nH]ccc2cc(OC3CCN(Cc4ccco4)CC3)ccc12 [Example 30E]", "measured-on": "recombinant human ROCK-1 (Homo sapiens, UniProt Q13464)", "recorded-result": 501}
{"compound": "Cc1ccc(CN2CCC[C@H](Oc3ccc4c(N)nccc4c3)C2)cc1", "measured-on": "recombinant human ROCK-1 (Homo sapiens, UniProt Q13464)", "recorded-result": 158}

a: Nc1nccc2cc(OC3CCCN(Cc4cccs4)C3)ccc12 (stereo not drawn)
b: COc1ccc(CN2CCCC(Oc3ccc4c(=O)[nH]ccc4c3)C2)cc1 (stereo not drawn) [Example 23D]
c: O=c1[nH]ccc2cc(OC3CCN(CCO)CC3)ccc12 [Example 31E]
Ordering criterion: IC50; begin with the maximum. Please respond with the labels ordered as the question requires. c, b, a
(c: 794 nM, b: 398 nM, a: 251 nM)

1: Nc1nccc2cc(SC3CCCNC3)ccc12 (stereo not drawn)
2: O=c1[nH]ccc2cc(OC3CCN(Cc4ccc[nH]4)CC3)ccc12 [Example 31G]
3: O=c1[nH]ccc2cc(OC3CCN(CCCO)CC3)ccc12 [Example 31C]
4: Nc1nccc2cc(OC3CCCN(Cc4ccc[nH]4)C3)ccc12 (stereo not drawn)
5: Nc1nccc2cc(OC3CCCN(CCOc4ccccc4)C3)ccc12 (stereo not drawn)
# ascending order, key=IC50 Dear reader, please state the labels in the requested order. 4, 5, 2, 1, 3
(4: 126 nM, 5: 200 nM, 2: 316 nM, 1: 501 nM, 3: 794 nM)
